Test system: NCI-H522 lung
ASSAY OVERVIEW: NCI-60 one-dose screen, 48 h (100 = growth as untreated, 0 = no growth, -100 = all killed)
CONDITIONS USED: 10 µM unless noted
Compounds without any hit were thinned out: in the full panel of roughly 83,000, 20% have a hit. Calls of active or inactive are those of the source. How the source made its calls: active means growth percent below 10; inactive means the rest.

COMPOUND	TARGET	growth
Cc1nn(-c2ccc(Br)cc2)c2nc(CCl)[nH]c(=O)c12	NCI-H522 lung	85.5% (inactive)
Cc1ccc(NC(=O)c2cc(/C=C/C(=O)NO)cc(C(F)(F)F)c2)cc1Nc1nccc(-c2cccnc2)n1	NCI-H522 lung	-73.1% (active)
Cc1ccc(-n2cc(/C=C/C(=O)c3ccc(S(C)(=O)=O)cc3)c(-c3ccc(S(C)(=O)=O)cc3)n2)cc1	NCI-H522 lung	74.2% (inactive)
O=C(/C=C1\C=CN(CCCCO)c2ccccc21)n1ccc2ccccc21	NCI-H522 lung	99.7% (inactive)
Cc1cc2nc(C(Cl)Cl)nc(-c3ccco3)n2n1	NCI-H522 lung	93.9% (inactive)
COc1ccc([C@H]2[C@H](O)C(=O)N2c2cc(OC)c(OC)c(OC)c2)cc1O	NCI-H522 lung	-38% (active)
O=C(Nc1cccc(-c2nc(-c3ccc(NC(=O)c4cccs4)cc3Cl)no2)c1)Nc1ccc(NC(=O)C2CC2)c(C(F)(F)F)c1	NCI-H522 lung	-34.5% (active)
NS(=O)(=O)c1ccc(Nc2nc(N/N=C/c3ccc(C(F)(F)F)cc3)nc(Nc3ccccc3)n2)cc1	NCI-H522 lung	38% (inactive)
COC[C@]12CC[C@@H](C)[C@H](C)[C@H]1C1=CC[C@@H]3[C@@]4(C)CCCNC(C)(C)[C@@H]4CC[C@@]3(C)[C@]1(C)CC2	NCI-H522 lung	-31.9% (active)
C#C[C@]1(O)CC[C@H]2[C@@H]3CC=C4c5sc(Nc6cccc(C)n6)nc5CC[C@]4(C)[C@H]3CC[C@@]21C	NCI-H522 lung	44.7% (inactive)
CC1CCc2c(sc3nc(SCC(=O)N/N=C/c4ccc(Cl)cc4)n(-c4ccccc4)c(=O)c23)C1 (stereo not drawn)	NCI-H522 lung	93.6% (inactive)
O=C(CN1C(=O)CSC1=O)Nc1ccc(C(=O)/C=C/c2cc3ccccc3nc2Cl)cc1	NCI-H522 lung	66.9% (inactive)
COCCC[C@H]1O[C@@](O)([C@H](C)[C@@H]2CC(OC)C(O)/C=C(C)/C=C(C)/C=C(\C)C(OC3O[C@@H](C)[C@H](O)C(O)[C@@H]3O)C(C)/C=C(C)/C=C(OC)/C=C(\C)C(=O)O2)C(OC)C(O)[C@]1(C)O[C@H]1C[C@@H](O)[C@H](O[C@H]2C[C@](C)(O)[C@H](O)C(C)O2)C(C)O1 (stereo partly drawn)	NCI-H522 lung	34.2% (inactive)
COc1ccc(NC(=O)Cn2cc(CN3C(=O)c4ccc([N+](=O)[O-])cc4C3=O)nn2)cc1	NCI-H522 lung	99.9% (inactive)
CCOC(=O)CC(=O)CSC1=NC2C(NN1)N(C)C(=O)N2C (stereo not drawn)	NCI-H522 lung	72.8% (inactive)
C[C@H]1[C@H](C)CC[C@]2(COC(=O)c3cccnc3)CC[C@]3(C)C(=CC[C@@H]4[C@@]5(C)CCCNC(C)(C)[C@@H]5CC[C@]43C)[C@H]12	NCI-H522 lung	82.9% (inactive)
CCCCOc1ccc(S(=O)(=O)N2CCN(c3nccc(N4CCOCC4)n3)CC2)cc1	NCI-H522 lung	81% (inactive)
CCN1CCN(Cc2ccc(C(=O)Nc3nc4ccc(Oc5ccnc(C(=O)NC)c5)cc4s3)cc2C(F)(F)F)CC1	NCI-H522 lung	58.9% (inactive)
Fc1ccc(-c2cc3nc(C(Cl)Cl)nc(-c4cccs4)n3n2)cc1	NCI-H522 lung	78.9% (inactive)
Cc1ccc(NC(=O)c2ccc(CN3CCN(C)CC3)c(I)c2)cc1Oc1ccc(-c2[nH]nc3ncnc(N)c23)cc1	NCI-H522 lung	46.6% (inactive)
O=C(NNc1nc2cc(F)ccc2n2cncc12)c1cnccn1	NCI-H522 lung	24.3% (inactive)
CCc1ccc(NC(=O)N[C@@H](Cc2cccc(F)c2)C(=O)N[C@@H]2C(=O)N3CCC[C@H]3C(=O)N3CCCC[C@H]3C(=O)N[C@@H](CO)C(=O)N3C[C@H](C)C[C@H]3C(=O)O[C@H]2C)c(F)c1	NCI-H522 lung	20.1% (inactive)
CN1CCN(c2ccc(C(=O)Nc3cccc(-c4cn(-c5ccc(S(N)(=O)=O)cc5)nn4)c3)cc2C(F)(F)F)CC1	NCI-H522 lung	90.2% (inactive)
CS(=O)(=O)c1ccc2c(c1)c1c(n2Cc2ccc(Cl)cc2)CCCC1	NCI-H522 lung	13.7% (inactive)
COC(=O)Nc1ccc(-c2nc(-c3cccc(O)c3)c(-c3ccnc(Br)c3)[nH]2)cc1	NCI-H522 lung	56% (inactive)
CC1=CC(=O)CC(C)(C)[C@@]1(O)/C=C/C(C)=C\C(=O)O	NCI-H522 lung	-41.6% (active)
CS(=O)c1nccc(-c2c(-c3ccc(F)c(OCc4ccccc4)c3)nc3sccn23)n1 (stereo not drawn)	NCI-H522 lung	31.6% (inactive)
CCOC(=O)c1c(NCC(=O)Nc2cccc(Cl)c2)sc2c1CCCC2	NCI-H522 lung	65.9% (inactive)
CC(C)(C)CC(C)(C)n1nnnc1C(Nc1ccccc1)c1cc2cccc3ccc4cccc1c4c32 (stereo not drawn)	NCI-H522 lung	72% (inactive)
Cc1cc(Cl)cc(NS(=O)(=O)c2ccc(-c3cnc(C4CC4)o3)cc2)c1	NCI-H522 lung	17.9% (inactive)
COc1ccc(-c2nc3cc(Cl)c(Cl)cc3n2CC(=O)N=Nc2c(O)[nH]c3ccccc23)cc1	NCI-H522 lung	87.9% (inactive)
Oc1ccc(CSc2nnc(-c3ccccc3)n2-c2ccccc2)c2cccnc12	NCI-H522 lung	12.6% (inactive)
C#C[C@]1(O)CC[C@H]2[C@@H]3CC=C4c5sc(Nc6ccncc6)nc5CC[C@]4(C)[C@H]3CC[C@@]21C	NCI-H522 lung	-37% (active)
